The measurements presented in this section are drawn from the supplement of paper PMC7125110.

# self-cleavage kobs at 10000 uM GlcN6P annotations
B1: glmS ribozyme (parent)
chain: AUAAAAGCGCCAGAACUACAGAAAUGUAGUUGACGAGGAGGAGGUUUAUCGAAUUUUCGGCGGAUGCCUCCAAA

- Variants of: B1
- methodSummary: self-cleavage kobs at 10000 uM GlcN6P; higher = faster cleavage; RNA array
- conditionsUsed: with glucosamine-6-phosphate
Variants at the floor of the assay were thinned out.
Value expressed in s⁻¹; do not type the unit.

Solved cases (2 shown):
>>> print(df.to_string())
       variantnotation  observedmeasurement
0       A14C U55A C71U              0.00514
1  G13A U47C C58U C71U             6.08e-05

Now for a further variant.
For this variant ( A14U G40A U54A ), measured self-cleavage kobs at 10000 uM GlcN6P is 0.000245
